Test system: ATP;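 note: ATP exposure 15 min at 22 °C before imaging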
Assay: switch fluorescence ratio, 500 uM ATP over buffer (Cy3 cluster intensity, sum of 5 cycles each) (fold (ratio)); higher = stronger signal-on switching upon ATP binding; sequences stand for … in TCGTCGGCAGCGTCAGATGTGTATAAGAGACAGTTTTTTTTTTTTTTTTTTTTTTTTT…TC
Conditions: aptamer strand: ATP DNA aptamer (quencher-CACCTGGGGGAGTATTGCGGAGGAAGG + anchor), 100 nM annealed; ATP concentration: 500 uM
Endpoint name: switch fluorescence ratio

q: Look at this sequence and give its reported switch fluorescence ratio. `GGGTTATACG`
a: 1.04

q: And what about the sequence `GTTGCAGTGT` ?
a: 1.02

q: Also, `AGGGTCGGAT` please.
a: 0.972

q: Please give the result for `GCCAGGGCTT` too.
a: 1.03

q: Also check `CGTGTTGTTT`
a: 1

q: Consider next the sequence `TGGTGAGATC` in the same way.
a: 0.965

q: Can you check `GATTGCAAGG` next?
a: 1.02

q: Next up: `AGTGCGGACA`
a: 1

q: And then `AGGAGGTTTG` , what is it?
a: 0.97

q: Similarly, `AAGTTTGGGA` ?
a: 1.07

q: Now consider `ATTCACACGC` .
a: 1.06

q: Another sequence to check: `GCTTGATCCA`
a: 1.01

q: Field entry: `CGGGAGGTGT`
a: 1.03

q: Can you check `ATTCAGATCT` next?
a: 1

q: Now consider `TTGGGGTTCT` .
a: 1.04

q: Input `ACAAGTTGGA`
a: 1.11

q: Try `GTAGGGGTTG` next.
a: 1.01

q: Next sequence up: `AATTGGTGCG`
a: 0.985

q: Try `GGGGGGGGCC` next.
a: 0.998

q: Again, but for `AACATGGGGC`
a: 1.02

q: Record: `TTTGGCAGGG`
a: 0.996

q: // same read-out, input: `TTTCTTTTAT`
a: 0.998

q: Queued: `TTTAAGTTTG`
a: 0.989

q: And for `AGCGATTCTG` ?
a: 1.02

q: Next record, please: `TAATATGGTT`
a: 1.03

q: Another sequence: `CAGTGGCCTA`
a: 0.991

q: Record: `AAGGAGAGGG`
a: 1

q: Same for `GCGGAGAAAT`
a: 1.4

q: Queued: `TAAACGGTCA`
a: 1.07

q: Request: `AATTGTATCA`
a: 1

====

Provide the reported switch fluorescence ratio of each item.
System: ATP;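 note: ATP exposure 15 min at 22 °C before imaging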
Test: switch fluorescence ratio, 500 uM ATP over buffer (Cy3 cluster intensity, sum of 5 cycles each) (fold (ratio)); higher = stronger signal-on switching upon ATP binding; sequences stand for … in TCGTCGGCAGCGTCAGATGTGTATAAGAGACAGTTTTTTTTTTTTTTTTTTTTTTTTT…TC
Conditions: aptamer strand: ATP DNA aptamer (quencher-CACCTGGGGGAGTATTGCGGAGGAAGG + anchor), 100 nM annealed; ATP concentration: 500 uM
The answer should be written as a number, with no unit following it.

q: # input sequence: `TGCGTATATG` ; wanted: its switch fluorescence ratio
a: 1

q: // repeat for `TGGTGATTAG` and report
a: 0.995

q: Record: `GGGGTGCCCG`
a: 0.948

q: Record: `TTTGTAAGTA`
a: 1

q: `GTATTTTTTT` , same question.
a: 0.967

q: Now the sequence `TGGATTAGGT`
a: 1.01

q: Lookup `AAACGGAGTG`
a: 1

q: Try this sequence too: `TGGATTTGGT`
a: 0.988

q: Next entry: `AACCACTGGG`
a: 1.17

q: Quick one: `GGGGAGGCCT`
a: 1.01

q: Try the sequence `CGTATGGGGG`
a: 1.07

q: Consider next the sequence `TTTTCACTTT` in the same way.
a: 1.01

q: Now this one: `ATGGGGTTAA`
a: 1.03

q: Moving on to `TTGCGGCTGG`
a: 0.974

q: Next entry: `ATATGGAAAT`
a: 1.01

q: Same for `ATCGGAGTAT`
a: 0.996

q: Entry to check: `GGGGGAGTGG`
a: 0.982

q: Further, for `TTTGCATGTA` ?
a: 1.02

q: Let us now turn to `AAGTGATATA`
a: 1.01

q: Similarly, `CATAGGATCG` ?
a: 0.949

q: And what about the sequence `AACAATGCTA` ?
a: 1.05

q: Also `GTGAGCGGGG` ?
a: 0.974

q: Continue with `GCCCTCTCGA`
a: 1.02

q: Field entry: `AATGGGGACA`
a: 0.995

q: Follow-up item: `CTGGGGGCCG`
a: 0.979

q: Follow-up item: `GGGGTTTCGG`
a: 1.02

q: Another sequence to look at: `GGTTGAACCG`
a: 1.01

q: Cool, now `CGTTTTATCT`
a: 1.03

q: Quick one: `GAGAGGGATG`
a: 1.01

q: Can you check `TTGATTCAGC` next?
a: 1.01

q: Next sequence up: `GAGAGAGGGG`
a: 0.984

q: Another: `GATGACACGA`
a: 1.03

q: Same again, this time with `AGGGCGTCTC`
a: 0.981

q: # repeat for `TAGGGGGTAT`
a: 1.02

q: Next record, please: `GGAAAATTCT`
a: 1.01

q: Check `GAAACGATGT` too.
a: 1.08

q: Try this sequence next: `CAGAAGGGCG`
a: 1

q: Input `TTTTCGTTTG`
a: 1

q: Same question for `CGGGGCATTG` please.
a: 1.01

q: Another sequence to look at: `AGGAGTTGGA`
a: 0.987

q: Do the same for `GGACAATTTT` please
a: 0.977

q: Also `CTTTGCATTA` , if possible.
a: 1.7

q: Proceed to `GCTATTGCGG`
a: 1.03

q: Same question for `ACGAGTTCCC` please.
a: 1.01

q: Same for `GGGTTGAATG`
a: 0.978

q: Then what about the sequence `TGCGATTCG` ?
a: 0.993

q: What do you have for `TCTGGGAATG` ?
a: 0.983

q: Then what about the sequence `TCTTTGGTCG` ?
a: 1.02

q: How about `GACATTTTTA` ?
a: 0.975

q: Subsequent entry: `GCAAAATTGG`
a: 1.04

q: One more sequence: `GAGGTTTTTA`
a: 0.986

q: Please answer likewise for `AAGTCCTTGT`
a: 1.02

q: Another sequence to look at: `AAGAGAAGCC`
a: 1.02

q: Repeat for the following sequence: `CGCCTGGGAT`
a: 1.03

q: Please give the result for `CGCCCTTGGC` too.
a: 1.07

q: Query `GGGTTTATAA` next
a: 0.987

q: What about `AGTGTGGGCA` ?
a: 0.965

q: And for `TGAAAGATCG` ?
a: 1.02

q: Cool, now `TTTAAGGTGA`
a: 1.04

q: Now consider `TATGGAATGG` and answer again.
a: 0.997

q: `GGGGAAACGT` ?
a: 1.12

q: Same again, this time with `CGAGGGGAAC`
a: 2.81

q: Then `TGGGAAAGGA` ?
a: 1.01

q: Query `GGGGTACAGT` next
a: 0.995

q: Let us now turn to `TTGGTTATTT`
a: 1

q: Please give the result for `GGGGTAGGAG` too.
a: 1.03

Values from the supplement of paper PMC10126150
